Tested on: SK-MEL-28
Assay: NCI-60 SRB screening (one-dose and five-dose)
Format: cell-based, human
Settings: SK-MEL-28, 10 μM, 48 h
metric: Growth Percent (%)
Number in %, nothing else.

Problem: SK-MEL-28 / Growth Percent / "COC(=O)[C@]12CC[C@@H](C(=O)/C=C/c3cccnc3)[C@@H]1[C@H]1CC[C@@H]3[C@@]4(C)C/C(=C\c5cccnc5)C(=O)C(C)(C)[C@@H]4CC[C@@]3(C)[C@]1(C)CC2" : value?
Result: −96.28

Problem: SK-MEL-28 / Growth Percent / "CC(=O)[C@H]1C[C@]23CC[C@]4(C)[C@H](CC[C@@H]5[C@@]6(C)CCC(=O)C(C)(C)[C@@H]6CC[C@]54C)[C@H]2[C@H](C)[C@@]1(C)OC3" : value?
Result: 109.33

Problem: SK-MEL-28 / Growth Percent / C[C@H]1[C@@H]2[C@H]3CC[C@@H]4[C@@]5(C)CC[C@H](O)C(C)(C)[C@@H]5CC[C@@]4(C)[C@]3(C)CC[C@]23CO[C@@]1(C)C(C(=O)/C=C/c1cccnc1)C3 (stereo partly shown) : value?
Result: 66.23

Problem: SK-MEL-28 / Growth Percent / CC(=O)O[C@H]1CC[C@]2(C)[C@H]3CC[C@@H]4[C@H]5[C@H](C)[C@@]6(C)OC[C@]5(CC[C@@]4(C)[C@]3(C)CC[C@H]2C1(C)C)CC6C(C)=O (stereo partly shown) : value?
Result: 80.73

Problem: SK-MEL-28 / Growth Percent / "C[C@H]1[C@@H]2[C@H]3CC[C@@H]4[C@@]5(C)C/C(=C\c6cccnc6)C(=O)C(C)(C)[C@@H]5CC[C@@]4(C)[C@]3(C)CC[C@]23CO[C@@]1(C)[C@@H](C(=O)/C=C/c1cccnc1)C3" : value?
Result: −17.77

Problem: SK-MEL-28 / Growth Percent / "COC(=O)[C@]12CC[C@@H](C(C)=O)[C@@H]1[C@H]1CC[C@@H]3[C@@]4(C)C/C(=C\c5cccnc5)C(=O)C(C)(C)[C@@H]4CC[C@@]3(C)[C@]1(C)CC2" : value?
Result: 31.54

Problem: SK-MEL-28 / Growth Percent / "C[C@H]1[C@@H]2[C@H]3CC[C@@H]4[C@@]5(C)CC[C@H](O)C(C)(C)[C@@H]5CC[C@@]4(C)[C@]3(C)CC[C@]23CO[C@@]1(C)[C@@H](C(=O)/C=C/c1ccco1)C3" : value?
Result: 36.66

---

System: RPMI-8226
Assay: NCI-60 SRB screening (one-dose and five-dose)
Type: cell-based, human
Details: RPMI-8226, 10 μM, 48 h
# Growth Percent values compiled below
Number in %, nothing else.

Problem: Query: Growth Percent; subject: CC(=O)[C@H]1C[C@]23CC[C@]4(C)[C@H](CC[C@@H]5[C@@]6(C)CCC(=O)C(C)(C)[C@@H]6CC[C@]54C)[C@H]2[C@H](C)[C@@]1(C)OC3 [Compound 2]
Result: 102.14

Problem: Query: Growth Percent; subject: CC(=O)O[C@H]1CC[C@]2(C)[C@H]3CC[C@@H]4[C@H]5[C@H](C)[C@@]6(C)OC[C@]5(CC[C@@]4(C)[C@]3(C)CC[C@H]2C1(C)C)CC6C(C)=O (stereo partly shown) [Compound 1]
Result: 47.53

Hello, the source for this data is paper PMC8509773, in case you need it.
